test: Assay I: SNAC solubility in combination with selected hydrotropes; conditions: SNAC solubility relative to SNAC control (no hydrotrope); hydrotrope 200 mg/mL, pH 6
readout-kind: Fold increase in solubility (fold)
Just the number please, in fold, no unit attached.

input: Give the measured Fold increase in solubility of O=C(O[C@@H]1Cc2c(O)cc(O)cc2O[C@@H]1c1cc(O)c(O)c(O)c1)c1cc(O)c(O)c(O)c1 [Epigallocatechin gallate] .
output: 9.6

---

assay: Assay I: SNAC solubility in combination with selected hydrotropes; settings: SNAC solubility relative to SNAC control (no hydrotrope); hydrotrope 200 mg/mL, pH 6
readout-kind: Fold increase in solubility (fold)
Just the number please, in fold, no unit attached.

[
  {
    "molecule": "CN(C)C(=O)c1ccccc1 [N,N dimethyl benzamide]",
    "units-text": "fold",
    "Fold increase in solubility": 38
  },
  {
    "molecule": "NC(N)=O [Urea]",
    "units-text": "fold",
    "Fold increase in solubility": 1.3
  }
]

// next entry
input: Give the measured Fold increase in solubility of CCN(CC)C(=O)c1cccnc1 [N,N diethyl nicotinamide] .
output: 7.8
